Documented selectivity ratio across a set of compounds
# Method: Therapeutic index, ratio of IC50 for human WI38 cells to IC50 for human HepG2 cells
# Format: cell-based
# Condition Details: WI38 cells and HepG2 cells, read-out: Ratio IC50
Property Measured: selectivity ratio

>>> result("CC(=O)N(c1ccc([Se]C2=CC(=O)c3ccccc3C2=O)cc1)C(C(=O)NC(C)(C)C)c1ccc(C)cc1 (centres undefined)")
"> 0.5"
>>> result("COC(CC(OC)OC)Cn1nnnc1C(Nc1ccc([Se][Se]c2ccc(NC(c3nnnn3CC(CC(OC)OC)OC)C(C)C)cc2)cc1)C(C)C (centres undefined)")
"> 2"
>>> result("CC(C)C(Nc1ccc([Se][Se]c2ccc(NC(c3nnnn3C(C)(C)C)C(C)C)cc2)cc1)c1nnnn1C(C)(C)C (centres undefined)")
"> 3"
>>> result("CC(C)C(Nc1ccc([Se][Se]c2ccc(NC(c3nnnn3Cc3ccccc3)C(C)C)cc2)cc1)c1nnnn1Cc1ccccc1 (centres undefined)")
"> 10"

Reference for the values: ChEMBL document CHEMBL3865787
